As shown below, each of these compounds has a reported damage to plant (100=total damage; 0=no damage) AMARE value.
- Tested on: redroot pigweed (Amaranthus retroflexus, AMARE)
- experimental-details: Test A post-emergence, redroot pigweed
- Format: in vivo
- measurement-setup: Post-Emergence at 250 g/ha; after 13 d
Would you mind answering with just the numeric figure?

Below, 7 compounds whose answers are already recorded.
CCc1ccccc1NC(=O)C1C(=O)N(C)CC1c1cc(C(F)(F)F)n(C)n1 (racemic) = 20
CN1CC(c2cnn(C)c2C(F)(F)F)C(C(=O)Nc2cccc(F)c2F)C1=O (racemic) = 0
CCn1nc([C@H]2CN(C)C(=O)[C@@H]2C(=O)Nc2cccc(F)c2F)c2c(F)cccc21 = 0
CN1CC(c2cc(Cl)n(C)n2)C(C(=O)Nc2ccc(F)cc2F)C1=O (racemic) = 40
CN1CC(c2cc(C(F)(F)F)n(C)n2)C(C(=O)Nc2ccc(F)c(F)c2F)C1=O (racemic) = 50
CCn1nc([C@H]2CN(C)C(=O)[C@@H]2C(=O)Nc2ccc(F)nc2F)c2cccc(F)c21 = 0
CCn1nc(C2CN(C)C(=O)C2C(=O)Nc2cccc(F)c2F)c2cccc(F)c21 (centres unmarked) [Compound 15] = 0

Moving on to the next compound.
Data request: What measured damage to plant (100=total damage; 0=no damage) AMARE goes with CCn1nc(C2CN(C)C(=O)C2C(=O)Nc2cccc(F)c2F)c2cccc(F)c21 (racemic) [Compound 10] ?
Data returned: 0

====

- Test system: plants
- experimental-details: Test D post-emergence, other plants of Tables D2 and D4
- Type: in vivo
- measurement-setup: BROTE; "Cereals" Postemergent; Rates 250; evaluated after 15 d
Each entry below carries its reported BROTE damage rating (100=total damage to plant; 0=no damage to plant).

CN1CC(c2cc(C(F)(F)F)n(C)n2)C(C(=O)Nc2ccc(F)c(F)c2F)C1=O (racemic) = 10
CN1CC(c2cc(C(F)(F)F)n(C)n2)C(C(=O)Nc2cccc(F)n2)C1=O (racemic) = 0

Data request: Any idea what its BROTE damage rating (100=total damage to plant; 0=no damage to plant) is? The compound is CN1CC(c2cc(C(F)(F)F)n(C)n2)C(C(=O)Nc2ccc(F)nc2F)C1=O (racemic)
Data returned: 0

Data request: Look up BROTE damage rating (100=total damage to plant; 0=no damage to plant): CN1CC(c2cc(C(F)(F)F)n(C)n2)C(C(=O)Nc2cccc(F)c2C(F)(F)F)C1=O (racemic)
Data returned: 0

====

- Test system: plants
- experimental-details: Test D pre-emergence, other plants of Tables D1 and D3
- Type: in vivo
- measurement-setup: pre-emergence, rate 15, 20 DAA, 100=total damage, 0=no damage
As shown below, each of these molecules has a reported damage to plant, BEAVA value.
Answer field: number only, no words.

Take a look at these entries with their results.
CN1CC(c2cc(C(F)(F)F)n(C)n2)C(C(=O)Nc2ccc(F)cc2C(C)(F)F)C1=O (racemic) = 0
CN1CC(c2cc(C(F)(F)F)n(C)n2)C(C(=O)Nc2ccc(F)c(F)c2F)C1=O (racemic) = 0
CCn1nc([C@@H]2CN(C)C(=O)[C@H]2C(=O)Nc2cccc(F)c2F)c2cccc(F)c21 = 0
CN1CC(c2cc(C(F)(F)F)n(C)n2)C(C(=O)Nc2cccc(F)c2F)C1=O (racemic) = 0

# context switch: different molecule, same damage to plant, BEAVA
Data request: Entry CCn1nc([C@H]2CN(C)C(=O)[C@@H]2C(=O)Nc2cccc(F)c2F)c2c(F)cccc21 has what damage to plant, BEAVA?
Data returned: 0
